- System: Cytochrome P450 1A2 (Homo sapiens, UniProt P05177)
- Sequence (P05177 whole entry): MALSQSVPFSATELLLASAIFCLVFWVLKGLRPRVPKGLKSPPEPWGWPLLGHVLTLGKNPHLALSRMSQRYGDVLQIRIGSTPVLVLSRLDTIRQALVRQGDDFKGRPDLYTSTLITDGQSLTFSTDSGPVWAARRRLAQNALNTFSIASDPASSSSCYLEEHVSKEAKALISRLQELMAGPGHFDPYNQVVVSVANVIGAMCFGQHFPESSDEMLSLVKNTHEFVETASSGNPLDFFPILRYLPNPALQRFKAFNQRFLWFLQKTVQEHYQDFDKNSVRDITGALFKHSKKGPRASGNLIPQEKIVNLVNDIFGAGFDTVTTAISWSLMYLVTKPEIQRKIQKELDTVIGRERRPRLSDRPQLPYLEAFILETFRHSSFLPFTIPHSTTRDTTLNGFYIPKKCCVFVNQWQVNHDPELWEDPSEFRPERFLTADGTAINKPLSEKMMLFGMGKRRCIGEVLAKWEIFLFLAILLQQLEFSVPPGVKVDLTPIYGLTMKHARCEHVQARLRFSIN
pIC50: −log10 of the molar value.
Assay Readout: pIC50

Form field: pIC50 recorded for Cc1cc(CN2CCC2)cc(F)c1-c1cc2c(-c3cnn(C)c3)n[nH]c2cn1 with Cytochrome P450 1A2 (Homo sapiens, UniProt P05177) (enter value) < 4.82

---

- System: Cytochrome P450 3A4 (Homo sapiens, UniProt P08684)
- Sequence (P08684 whole entry): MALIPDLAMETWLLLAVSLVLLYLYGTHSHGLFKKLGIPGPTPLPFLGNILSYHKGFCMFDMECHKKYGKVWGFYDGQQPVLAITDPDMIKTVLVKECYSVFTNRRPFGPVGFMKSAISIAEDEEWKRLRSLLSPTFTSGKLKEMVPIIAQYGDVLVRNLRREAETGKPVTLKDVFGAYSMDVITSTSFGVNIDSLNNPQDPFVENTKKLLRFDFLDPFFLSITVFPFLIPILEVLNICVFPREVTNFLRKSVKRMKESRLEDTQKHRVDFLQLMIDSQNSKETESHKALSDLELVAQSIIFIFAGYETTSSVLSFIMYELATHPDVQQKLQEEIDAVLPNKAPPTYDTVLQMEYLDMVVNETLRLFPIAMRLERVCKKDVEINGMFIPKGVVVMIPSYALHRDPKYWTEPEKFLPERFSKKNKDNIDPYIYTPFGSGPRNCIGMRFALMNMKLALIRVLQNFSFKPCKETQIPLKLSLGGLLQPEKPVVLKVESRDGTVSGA
- Assay Overview: Inhibition of CYP3A4 in human liver microsomes using testosterone as substrate by LC-MS analysis
- Type: ADME, Microsome
pIC50: −log10 of the molar value.
pIC50 values for the molecules below.

Form field: reported pIC50 of CNCc1cc(F)c(-c2cc3c(-c4cnn(C)c4)n[nH]c3cn2)c(F)c1 < 4.60

Form field: reported pIC50 of Cc1cc(CN2CCC2)cc(F)c1-c1cc2c(-c3cnn(C)c3)n[nH]c2cn1 < 4.82

Form field: reported pIC50 of CNCc1cc(F)c(-c2cc3c(-c4cnn(C)c4)n[nH]c3cn2)c(C(F)(F)F)c1 < 4.60

Form field: reported pIC50 of CNCc1cc(C)c(-c2cc3c(-c4cnn(C)c4)n[nH]c3cn2)c(F)c1 < 4.60

---

- Assay Overview: Fraction unbound in human plasma by LC-MS/MS analysis
- Type: ADME, cell-free
fraction unbound values for the compounds below.
Number only, please.

Sample answers from the record:
Form field: reported fraction unbound of CNCc1cc(C)c(-c2cc3c(-c4cnn(C)c4)n[nH]c3cn2)c(F)c1 0.41

Form field: reported fraction unbound of Cc1cc(C2CCCCN2)cc(F)c1-c1cc2c(-c3cnn(C)c3)n[nH]c2cn1 (stereo not given) 0.5

Others:
Form field: reported fraction unbound of CCNCc1cc(C)c(-c2cc3c(-c4cnn(C)c4)n[nH]c3cn2)c(F)c1 0.61

Form field: reported fraction unbound of CNC(C)c1cc(C)c(-c2cc3c(-c4cnn(C)c4)n[nH]c3cn2)c(F)c1 (stereo not given) 0.49

Form field: reported fraction unbound of Cc1cc(CN2CCC2)cc(F)c1-c1cc2c(-c3cnn(C)c3)n[nH]c2cn1 0.43

---

IC50 values for the compounds below.
- System: Receptor-type tyrosine-protein kinase FLT3 (Homo sapiens, UniProt P36888)
- Sequence (P36888 whole entry): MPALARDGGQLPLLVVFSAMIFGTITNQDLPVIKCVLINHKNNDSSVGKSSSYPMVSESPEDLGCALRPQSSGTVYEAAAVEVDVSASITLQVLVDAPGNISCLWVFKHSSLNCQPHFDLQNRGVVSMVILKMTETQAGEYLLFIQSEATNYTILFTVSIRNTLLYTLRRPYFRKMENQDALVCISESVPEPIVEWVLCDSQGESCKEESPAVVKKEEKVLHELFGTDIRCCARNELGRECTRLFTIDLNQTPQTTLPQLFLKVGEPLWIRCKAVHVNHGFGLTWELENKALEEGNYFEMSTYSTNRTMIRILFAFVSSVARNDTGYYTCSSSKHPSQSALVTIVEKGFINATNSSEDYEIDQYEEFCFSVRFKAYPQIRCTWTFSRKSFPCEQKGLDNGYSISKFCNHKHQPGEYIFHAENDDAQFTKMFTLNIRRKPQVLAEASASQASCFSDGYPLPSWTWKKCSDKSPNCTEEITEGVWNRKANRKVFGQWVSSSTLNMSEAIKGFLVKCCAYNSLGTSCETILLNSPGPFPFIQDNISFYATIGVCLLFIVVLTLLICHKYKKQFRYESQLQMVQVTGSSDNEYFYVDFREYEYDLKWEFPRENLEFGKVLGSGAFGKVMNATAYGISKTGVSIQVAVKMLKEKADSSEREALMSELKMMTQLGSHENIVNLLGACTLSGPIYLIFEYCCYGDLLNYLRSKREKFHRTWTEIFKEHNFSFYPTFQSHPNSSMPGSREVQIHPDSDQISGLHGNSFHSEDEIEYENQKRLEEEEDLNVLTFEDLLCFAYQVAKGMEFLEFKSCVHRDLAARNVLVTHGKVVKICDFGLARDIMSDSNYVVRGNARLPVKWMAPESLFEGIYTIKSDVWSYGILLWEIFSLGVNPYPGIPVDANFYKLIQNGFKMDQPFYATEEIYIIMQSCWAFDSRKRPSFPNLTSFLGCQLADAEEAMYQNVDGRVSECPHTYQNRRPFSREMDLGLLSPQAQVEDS
Entry rule: numbers only, all in nM.

Sample answers from the record:
Form field: reported IC50 of CNCc1cc(F)c(-c2cc3c(-c4cnn(C)c4)n[nH]c3cn2)c(OC)c1 260

Form field: reported IC50 of CNCc1cc(F)c(-c2cc3c(-c4cnn(C)c4)n[nH]c3cn2)c(C(F)(F)F)c1 2230

Then this compound:
Form field: reported IC50 of CNCc1cc(F)c(-c2cc3c(-c4cnn(C)c4)n[nH]c3cn2)c(F)c1 366

---

- System: hERG (KCNH2) (Homo sapiens, UniProt Q12809)
- Sequence (Q12809 whole entry): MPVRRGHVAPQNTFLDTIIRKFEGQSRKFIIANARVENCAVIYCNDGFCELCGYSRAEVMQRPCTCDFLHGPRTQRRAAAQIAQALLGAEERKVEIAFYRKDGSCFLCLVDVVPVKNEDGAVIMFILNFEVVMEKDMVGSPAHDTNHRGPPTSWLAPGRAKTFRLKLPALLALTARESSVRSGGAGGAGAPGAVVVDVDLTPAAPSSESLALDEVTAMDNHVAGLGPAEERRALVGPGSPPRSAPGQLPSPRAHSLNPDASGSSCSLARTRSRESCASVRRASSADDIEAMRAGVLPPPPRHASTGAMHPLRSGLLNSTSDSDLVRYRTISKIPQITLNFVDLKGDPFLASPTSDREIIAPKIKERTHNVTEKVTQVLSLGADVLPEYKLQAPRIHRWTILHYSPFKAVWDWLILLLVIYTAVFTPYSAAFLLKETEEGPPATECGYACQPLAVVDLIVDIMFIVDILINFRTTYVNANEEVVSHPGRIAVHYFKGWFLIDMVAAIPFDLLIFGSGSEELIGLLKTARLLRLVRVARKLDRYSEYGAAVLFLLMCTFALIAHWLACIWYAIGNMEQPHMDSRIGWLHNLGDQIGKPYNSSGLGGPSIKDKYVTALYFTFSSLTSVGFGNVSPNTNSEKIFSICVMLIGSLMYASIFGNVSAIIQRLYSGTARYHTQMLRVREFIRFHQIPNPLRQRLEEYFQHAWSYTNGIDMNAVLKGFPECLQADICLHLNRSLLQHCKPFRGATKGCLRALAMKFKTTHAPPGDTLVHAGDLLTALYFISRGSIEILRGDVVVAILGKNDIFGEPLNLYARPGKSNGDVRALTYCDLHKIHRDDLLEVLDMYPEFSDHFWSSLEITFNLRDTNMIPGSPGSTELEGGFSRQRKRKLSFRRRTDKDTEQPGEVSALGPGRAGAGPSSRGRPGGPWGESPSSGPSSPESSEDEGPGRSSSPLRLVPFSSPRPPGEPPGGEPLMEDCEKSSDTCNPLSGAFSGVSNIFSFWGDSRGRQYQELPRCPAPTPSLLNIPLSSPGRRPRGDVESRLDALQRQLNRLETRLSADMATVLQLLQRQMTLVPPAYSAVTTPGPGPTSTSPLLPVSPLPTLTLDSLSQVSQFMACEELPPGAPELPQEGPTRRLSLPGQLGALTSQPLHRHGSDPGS
- Assay Overview: Inhibition of human ERG at 5 uM by patch-clamp assay
- Type: toxicity
Assay Readout: inhibition at 5 µM (%)
Entry rule: numbers only, all in %.

Form field: inhibition at 5 µM recorded for Cc1cc(CN2CCC2)cc(F)c1-c1cc2c(-c3cnn(C)c3)n[nH]c2cn1 with hERG (KCNH2) (Homo sapiens, UniProt Q12809) (enter value) 5

---

Ki values for the molecules below.
- System: Mitogen-activated protein kinase kinase kinase kinase 1 (Homo sapiens, UniProt Q92918)
- Sequence (Q92918 whole entry, the tested form may be a part): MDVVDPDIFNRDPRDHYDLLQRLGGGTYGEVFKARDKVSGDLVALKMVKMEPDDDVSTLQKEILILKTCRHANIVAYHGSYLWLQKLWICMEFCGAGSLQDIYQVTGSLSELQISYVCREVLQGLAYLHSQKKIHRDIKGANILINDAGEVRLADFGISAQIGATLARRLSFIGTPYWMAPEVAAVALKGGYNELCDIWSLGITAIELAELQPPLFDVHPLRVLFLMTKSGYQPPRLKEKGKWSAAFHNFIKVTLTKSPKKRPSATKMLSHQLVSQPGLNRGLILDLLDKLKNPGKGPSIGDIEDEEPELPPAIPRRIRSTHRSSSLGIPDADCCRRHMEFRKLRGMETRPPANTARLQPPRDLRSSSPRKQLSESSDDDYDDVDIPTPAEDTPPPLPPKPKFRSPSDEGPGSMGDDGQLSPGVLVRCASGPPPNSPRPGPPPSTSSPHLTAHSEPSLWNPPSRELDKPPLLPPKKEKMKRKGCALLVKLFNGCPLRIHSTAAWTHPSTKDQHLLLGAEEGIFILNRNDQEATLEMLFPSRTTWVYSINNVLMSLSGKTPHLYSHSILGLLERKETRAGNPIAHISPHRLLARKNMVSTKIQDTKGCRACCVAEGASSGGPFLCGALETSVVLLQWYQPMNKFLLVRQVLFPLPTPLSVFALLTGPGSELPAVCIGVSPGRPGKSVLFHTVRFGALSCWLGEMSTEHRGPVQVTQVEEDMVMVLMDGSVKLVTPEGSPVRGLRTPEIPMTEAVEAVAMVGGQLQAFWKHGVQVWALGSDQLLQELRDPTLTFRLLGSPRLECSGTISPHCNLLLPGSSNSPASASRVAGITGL
- Assay Overview: Binding affinity to recombinant human HPK1 (1 to 346 residues) expressed sf9 cells incubated for 1 hr by LanthaScreen assay
Entry rule: numbers only, all in nM.

Form field: reported Ki of CN1CCN(c2ccc(-c3n[nH]c4ccc(-c5ccccc5)nc34)cc2)CC1 223

Form field: reported Ki of CN1CCN(c2ccc(-c3n[nH]c4cc(-c5ccccc5)cnc34)cc2)CC1 1150

Form field: reported Ki of CN1CCN(c2ccc(Nc3ncc4ccc(-c5ccccc5)cc4n3)cc2)CC1 492

Others:
Form field: reported Ki of COc1cccc(F)c1-c1ncc2[nH]nc(-c3cnn(C)c3)c2n1 12

Form field: reported Ki of Cc1cc(CN2CCC2)cc(F)c1-c1cc2c(-c3cnn(C)c3)n[nH]c2cn1 4.1
